Procedure Summary: Estimated hot solubility in solvents at elevated temperature (approximately solvent boiling point)
Type: physicochemical
Test Settings: 118 °C, organic solvent or mixture, thermodynamic from solid, 1-Butanol, read-out: Hot Solubility (est)
Parameter: solubility

| Molecular String | Result Value |
| --- | --- |
| COc1ccc(C(=O)NC2(C(=O)O)Cc3ccccc3C2)cc1OCCc1cccc(C)c1 | > 10000 µg/mL |

---

Procedure Summary: Solubility of Compound I in solvents at room temperature (about 25° C.)
Format: physicochemical
Test Settings: organic solvent or mixture, thermodynamic from solid, MEK, read-out: Solubility
Parameter: solubility

| Molecular String | Result Value |
| --- | --- |
| COc1ccc(C(=O)NC2(C(=O)O)Cc3ccccc3C2)cc1OCCc1cccc(C)c1 | 4000 to 6000 µg/mL |
